Tested on: 832693-133-R-J1-PDC multi-cell spheroids, viability
Assay: Anticancer human tumor 832693-133-R-J1-PDC patient-derived head and neck squamous carcinoma cell line growth inhibition [IpAb]; active = viability on the fitted dose curve at most 10% of control; inactive = the rest
Conditions: second compound 0.0316 µM; first compound 1 µM
In this exercise, the only acceptable responses are active, inactive

Some solved entries appear below for comparison.
compound	target or test system	class name
CCCS(=O)(=O)Nc1ccc(F)c(C(=O)c2c[nH]c3ncc(-c4ccc(Cl)cc4)cc23)c1F + CCN1CCN(Cc2ccc(Nc3ncc(F)c(-c4cc(F)c5nc(C)n(C(C)C)c5c4)n3)nc2)CC1	832693-133-R-J1-PDC multi-cell spheroids, viability	inactive
COc1c(OCCCN2CCOCC2)ccc2c3n(c(=NC(=O)c4cnc(N)nc4)nc12)CCN3 + CCN1CCN(Cc2ccc(Nc3ncc(F)c(-c4cc(F)c5nc(C)n(C(C)C)c5c4)n3)nc2)CC1	832693-133-R-J1-PDC multi-cell spheroids, viability	active
CC1(C)CCC(CN2CCN(c3ccc(C(=O)NS(=O)(=O)c4ccc(NCC5CCOCC5)c([N+](=O)[O-])c4)c(Oc4cnc5[nH]ccc5c4)c3)CC2)=C(c2ccc(Cl)cc2)C1 + CCN1CCN(Cc2ccc(Nc3ncc(F)c(-c4cc(F)c5nc(C)n(C(C)C)c5c4)n3)nc2)CC1	832693-133-R-J1-PDC multi-cell spheroids, viability	inactive
C=CCn1c(=O)c2cnc(Nc3ccc(N4CCN(C)CC4)cc3)nc2n1-c1cccc(C(C)(C)O)n1 + CCN1CCN(Cc2ccc(Nc3ncc(F)c(-c4cc(F)c5nc(C)n(C(C)C)c5c4)n3)nc2)CC1	832693-133-R-J1-PDC multi-cell spheroids, viability	inactive
Cn1nccc1Nc1nccc(-c2ccn(C(CO)c3ccc(Cl)c(F)c3)c(=O)c2)n1 (stereo not drawn) + CCN1CCN(Cc2ccc(Nc3ncc(F)c(-c4cc(F)c5nc(C)n(C(C)C)c5c4)n3)nc2)CC1	832693-133-R-J1-PDC multi-cell spheroids, viability	inactive
Cn1ncc(Cl)c1-c1cc(C(=O)NC(CN)Cc2cccc(F)c2)sc1Cl (stereo not drawn) + CCN1CCN(Cc2ccc(Nc3ncc(F)c(-c4cc(F)c5nc(C)n(C(C)C)c5c4)n3)nc2)CC1	832693-133-R-J1-PDC multi-cell spheroids, viability	inactive

Input: How did this test come out for C=CC(=O)N1CCN(c2nc(=O)n(-c3c(C)ccnc3C(C)C)c3nc(-c4c(O)cccc4F)c(F)cc23)C(C)C1 (stereo not drawn) + CCN1CCN(Cc2ccc(Nc3ncc(F)c(-c4cc(F)c5nc(C)n(C(C)C)c5c4)n3)nc2)CC1 ?
Output: inactive

Input: How did this test come out for Cc1nc(NC(=O)N2CCCC2C(N)=O)sc1-c1ccnc(C(C)(C)C(F)(F)F)c1 (stereo not drawn) + CCN1CCN(Cc2ccc(Nc3ncc(F)c(-c4cc(F)c5nc(C)n(C(C)C)c5c4)n3)nc2)CC1 ?
Output: inactive

* * *

System: 832693-133-R-J1-PDC multi-cell spheroids, viability
Assay: Anticancer human tumor 832693-133-R-J1-PDC cell line growth inhibition [IpAb];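 also: spheroids exposed to the drugs for one week before the viability readout; 100% = DMSO vehicle control wells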
Details: second compound 0.316 µM; first compound 3.16 µM; stronger effect = lower value
reported metric: viability, T/C

compound	reported metric	test result
C=CCn1c(=O)c2cnc(Nc3ccc(N4CCN(C)CC4)cc3)nc2n1-c1cccc(C(C)(C)O)n1 + CCN1CCN(Cc2ccc(Nc3ncc(F)c(-c4cc(F)c5nc(C)n(C(C)C)c5c4)n3)nc2)CC1	viability, T/C	35.2%

Record viability, T/C for all entries; do not skip any.
1. CC1(C)CCC(CN2CCN(c3ccc(C(=O)NS(=O)(=O)c4ccc(NCC5CCOCC5)c([N+](=O)[O-])c4)c(Oc4cnc5[nH]ccc5c4)c3)CC2)=C(c2ccc(Cl)cc2)C1 + CCN1CCN(Cc2ccc(Nc3ncc(F)c(-c4cc(F)c5nc(C)n(C(C)C)c5c4)n3)nc2)CC1
2. Cn1nccc1Nc1nccc(-c2ccn(C(CO)c3ccc(Cl)c(F)c3)c(=O)c2)n1 (stereo not given) + CCN1CCN(Cc2ccc(Nc3ncc(F)c(-c4cc(F)c5nc(C)n(C(C)C)c5c4)n3)nc2)CC1
3. C=CC(=O)N1CCN(c2nc(=O)n(-c3c(C)ccnc3C(C)C)c3nc(-c4c(O)cccc4F)c(F)cc23)C(C)C1 (stereo not given) + CCN1CCN(Cc2ccc(Nc3ncc(F)c(-c4cc(F)c5nc(C)n(C(C)C)c5c4)n3)nc2)CC1

Output:
1: 75.5%; 2: 36.8%; 3: 77.5%

Reported viability, T/C for CC1(C)CCC(CN2CCN(c3ccc(C(=O)NS(=O)(=O)c4ccc(NCC5CCOCC5)c([N+](=O)[O-])c4)c(Oc4cnc5[nH]ccc5c4)c3)CC2)=C(c2ccc(Cl)cc2)C1 + CC(C)NCC(C(=O)N1CCN(c2ncnc3c2C(C)CC3O)CC1)c1ccc(Cl)cc1 was 68.7%

* * *

Provide the recorded viability, T/C for the entries that follow.
System: 832693-133-R-J1-PDC multi-cell spheroids, viability
Assay: Anticancer human tumor 832693-133-R-J1-PDC cell line growth inhibition [IpAb];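 also: spheroids exposed to the drugs for one week before the viability readout; 100% = DMSO vehicle control wells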
Details: second compound 0.1 µM; first compound 0.00316 µM; stronger effect = lower value
One number for each entry, in %.

Parameter requested: viability, T/C. Apply to each item below.
1. COc1c(OCCCN2CCOCC2)ccc2c3n(c(=NC(=O)c4cnc(N)nc4)nc12)CCN3 + CCN1CCN(Cc2ccc(Nc3ncc(F)c(-c4cc(F)c5nc(C)n(C(C)C)c5c4)n3)nc2)CC1
2. Cn1ncnc1[C@H]1c2n[nH]c(=O)c3cc(F)cc(c23)N[C@@H]1c1ccc(F)cc1 + CCN1CCN(Cc2ccc(Nc3ncc(F)c(-c4cc(F)c5nc(C)n(C(C)C)c5c4)n3)nc2)CC1
3. CC(C)n1nc(-c2ccc3oc(N)nc3c2)c2c(N)ncnc21 + CC(C)NCC(C(=O)N1CCN(c2ncnc3c2C(C)CC3O)CC1)c1ccc(Cl)cc1
4. CC(C)n1nc(-c2ccc3oc(N)nc3c2)c2c(N)ncnc21 + CCN1CCN(Cc2ccc(Nc3ncc(F)c(-c4cc(F)c5nc(C)n(C(C)C)c5c4)n3)nc2)CC1
5. COc1c(OCCCN2CCOCC2)ccc2c3n(c(=NC(=O)c4cnc(N)nc4)nc12)CCN3 + CC(C)NCC(C(=O)N1CCN(c2ncnc3c2C(C)CC3O)CC1)c1ccc(Cl)cc1
6. Cn1ncnc1[C@H]1c2n[nH]c(=O)c3cc(F)cc(c23)N[C@@H]1c1ccc(F)cc1 + CC(C)NCC(C(=O)N1CCN(c2ncnc3c2C(C)CC3O)CC1)c1ccc(Cl)cc1

Output:
1. 60.1
2. 61
3. 82.2
4. 52.7
5. 83.1
6. 74.7

* * *

Test system: 832693-133-R-J1-PDC multi-cell spheroids, viability
Assay: Anticancer human tumor 832693-133-R-J1-PDC cell line growth inhibition [IpAb];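 also: spheroids exposed to the drugs for one week before the viability readout; 100% = DMSO vehicle control wells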
Details: second compound 0.1 µM; first compound 0.316 µM; stronger effect = lower value
Record form. Attribute: viability, T/C. Fill in for each entry.
One number for each entry, in %.

A selection of reference data follows.
molecule	target or test system	viability, T/C [%]
Cn1nccc1Nc1nccc(-c2ccn(C(CO)c3ccc(Cl)c(F)c3)c(=O)c2)n1 (stereo not drawn) + CCN1CCN(Cc2ccc(Nc3ncc(F)c(-c4cc(F)c5nc(C)n(C(C)C)c5c4)n3)nc2)CC1	832693-133-R-J1-PDC multi-cell spheroids, viability	53.7
C=CCn1c(=O)c2cnc(Nc3ccc(N4CCN(C)CC4)cc3)nc2n1-c1cccc(C(C)(C)O)n1 + CCN1CCN(Cc2ccc(Nc3ncc(F)c(-c4cc(F)c5nc(C)n(C(C)C)c5c4)n3)nc2)CC1	832693-133-R-J1-PDC multi-cell spheroids, viability	41.6
COc1c(OCCCN2CCOCC2)ccc2c3n(c(=NC(=O)c4cnc(N)nc4)nc12)CCN3 + CCN1CCN(Cc2ccc(Nc3ncc(F)c(-c4cc(F)c5nc(C)n(C(C)C)c5c4)n3)nc2)CC1	832693-133-R-J1-PDC multi-cell spheroids, viability	3.33
CC1(C)CCC(CN2CCN(c3ccc(C(=O)NS(=O)(=O)c4ccc(NCC5CCOCC5)c([N+](=O)[O-])c4)c(Oc4cnc5[nH]ccc5c4)c3)CC2)=C(c2ccc(Cl)cc2)C1 + CCN1CCN(Cc2ccc(Nc3ncc(F)c(-c4cc(F)c5nc(C)n(C(C)C)c5c4)n3)nc2)CC1	832693-133-R-J1-PDC multi-cell spheroids, viability	78.1
Cn1nccc1Nc1nccc(-c2ccn(C(CO)c3ccc(Cl)c(F)c3)c(=O)c2)n1 (stereo not drawn) + CC(C)NCC(C(=O)N1CCN(c2ncnc3c2C(C)CC3O)CC1)c1ccc(Cl)cc1	832693-133-R-J1-PDC multi-cell spheroids, viability	55.9

For each of the molecules below, state viability, T/C.
1. C=CC(=O)N1CCN(c2nc(=O)n(-c3c(C)ccnc3C(C)C)c3nc(-c4c(O)cccc4F)c(F)cc23)C(C)C1 (stereo not drawn) + CC(C)NCC(C(=O)N1CCN(c2ncnc3c2C(C)CC3O)CC1)c1ccc(Cl)cc1
2. Cn1ncc(Cl)c1-c1cc(C(=O)NC(CN)Cc2cccc(F)c2)sc1Cl (stereo not drawn) + CCN1CCN(Cc2ccc(Nc3ncc(F)c(-c4cc(F)c5nc(C)n(C(C)C)c5c4)n3)nc2)CC1
3. Cc1nc(NC(=O)N2CCCC2C(N)=O)sc1-c1ccnc(C(C)(C)C(F)(F)F)c1 (stereo not drawn) + CCN1CCN(Cc2ccc(Nc3ncc(F)c(-c4cc(F)c5nc(C)n(C(C)C)c5c4)n3)nc2)CC1
4. COc1c(OCCCN2CCOCC2)ccc2c3n(c(=NC(=O)c4cnc(N)nc4)nc12)CCN3 + CC(C)NCC(C(=O)N1CCN(c2ncnc3c2C(C)CC3O)CC1)c1ccc(Cl)cc1
5. C=CCn1c(=O)c2cnc(Nc3ccc(N4CCN(C)CC4)cc3)nc2n1-c1cccc(C(C)(C)O)n1 + CC(C)NCC(C(=O)N1CCN(c2ncnc3c2C(C)CC3O)CC1)c1ccc(Cl)cc1

Output:
1: 86; 2: 43.4; 3: 42.3; 4: 4.92; 5: 25.8

Hey, can you go through the list below and give me viability, T/C for every item?
1. CCCS(=O)(=O)Nc1ccc(F)c(C(=O)c2c[nH]c3ncc(-c4ccc(Cl)cc4)cc23)c1F + CC(C)NCC(C(=O)N1CCN(c2ncnc3c2C(C)CC3O)CC1)c1ccc(Cl)cc1
2. Cn1ncc(Cl)c1-c1cc(C(=O)NC(CN)Cc2cccc(F)c2)sc1Cl (stereo not drawn) + CC(C)NCC(C(=O)N1CCN(c2ncnc3c2C(C)CC3O)CC1)c1ccc(Cl)cc1
3. C=CC(=O)N1CCN(c2nc(=O)n(-c3c(C)ccnc3C(C)C)c3nc(-c4c(O)cccc4F)c(F)cc23)C(C)C1 (stereo not drawn) + CCN1CCN(Cc2ccc(Nc3ncc(F)c(-c4cc(F)c5nc(C)n(C(C)C)c5c4)n3)nc2)CC1

Output:
1. 92.5
2. 75.5
3. 73.3
